# Measurement target: KRAS G12C (Homo sapiens, UniProt P01116, G12C)
# Sequence (P01116 1-188 isoform P01116-2 G12C): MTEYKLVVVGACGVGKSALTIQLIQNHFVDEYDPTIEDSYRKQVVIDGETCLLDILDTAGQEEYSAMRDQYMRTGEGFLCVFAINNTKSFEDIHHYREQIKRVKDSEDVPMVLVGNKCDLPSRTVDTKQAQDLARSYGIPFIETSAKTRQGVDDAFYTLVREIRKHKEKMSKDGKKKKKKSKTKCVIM
# Assay info: KRAS G12C GDP-GTP exchange assay (bodipy-GDP for GppNHp, with SOS1)
# Protocol conditions: 2.5 nM bodipy-loaded KRAS G12C, 2 hours pre-incubation with inhibitor, 2 hours after GppNHp-SOS1; read-out: G12C_exchange (KRAS_G12C exchange assay IC50)
Listing: IC50 of selected compounds
Measured property: IC50

>>> result("C=CC(=O)N1CC[C@H](n2ncc3c(OC[C@@H]4CCCN4C)nc4c(F)c(-c5c(C)c(Cl)cc6[nH]ncc56)c(Cl)cc4c32)C[C@H]1CC#N (single isomer, unassigned) [Example 20b]")
"≤ 100 nM"
>>> result("C[C@H](Oc1nc2c(F)c(-c3cccc4cccc(Cl)c34)c(Cl)cc2c2c1cnn2[C@H]1CCN(C(=O)/C=C/CN(C)C)[C@H](CC#N)C1)[C@@H]1CCCN1C")
"≤ 100 nM"
>>> result("C=CC(=O)N1CC[C@H](n2ncc3c(N4CC(C)(N(C)C)C4)nc4c(F)c(-c5c(C)c(Cl)cc6[nH]ncc56)c(Cl)cc4c32)C[C@H]1CC#N (single isomer, unassigned) [Example 16a]")
"≤ 100 nM"

----------
# Measurement target: KRAS G12C (Homo sapiens, UniProt P01116, G12C)
# Assay info: KRAS G12C GDP-GTP exchange assay (bodipy-GDP for GppNHp, with SOS1)
# Protocol conditions: 2.5 nM bodipy-loaded KRAS G12C, 2 hours pre-incubation with inhibitor, 2 hours after GppNHp-SOS1; read-out: G12C_exchange (KRAS_G12C exchange assay IC50)
pIC50: −log10 of the molar value.
Listing: pIC50 of selected compounds
Measured property: pIC50

>>> result("C=CC(=O)N1CC[C@H](n2ncc3c(OC[C@@H]4CCCN4C)nc4c(F)c(-c5c(C)c(Cl)cc6[nH]ncc56)c(Cl)cc4c32)C[C@H]1CC#N (single isomer, unassigned) [Example 20a]")
"≥ 7.00"
>>> result("Cc1cc2c(nc(O[C@@H](C)[C@@H]3CCCN3C)c3cnn([C@H]4CCN(C(=O)/C=C/CF)[C@H](CC#N)C4)c32)c(F)c1-c1cccc2cccc(C#N)c12 (single isomer, unassigned) [Example 55b]")
"≥ 7.00"
>>> result("C=CC(=O)N1CC[C@H](n2ncc3c(N4CC(N(C)C)C4)nc4c(F)c(-c5cncc6ccccc56)c(Cl)cc4c32)C[C@H]1CC#N")
"≥ 7.00"

----------
# Measurement target: KRAS G12C (Homo sapiens, UniProt P01116, G12C)
# Assay info: KRAS G12C GDP-GTP exchange assay (bodipy-GDP for GppNHp, with SOS1)
# Protocol conditions: 2.5 nM bodipy-loaded KRAS G12C, 2 hours pre-incubation with inhibitor, 2 hours after GppNHp-SOS1; read-out: G12C_exchange (KRAS_G12C exchange assay IC50)
Measured property: IC50

>>> result("CC#CC(=O)N1CC[C@H](n2ncc3c(O[C@@H](C)[C@@H]4CCCN4C)nc4c(F)c(-c5c(C)c(C)cc6[nH]ncc56)c(C)cc4c32)C[C@H]1CC#N (single isomer, unassigned) [Example 69b]")
"≤ 100 nM"
>>> result("CC#CC(=O)N1CC[C@H](n2ccc3c(OC[C@@H]4CCCN4C)nc4c(F)c(-c5c(C)c(C)cc6[nH]ncc56)c(Cl)cc4c32)C[C@H]1CC#N (single isomer, unassigned) [Example 90a]")
"≤ 100 nM"
>>> result("CC#CC(=O)N1CC[C@H](n2ncc3c(O[C@@H](C)[C@@H]4CCCN4C)nc4c(F)c(-c5cccc6cccc(Cl)c56)c(Cl)cc4c32)C[C@H]1CC#N [Example 87]")
"≤ 100 nM"
>>> result("Cc1c(Cl)cc2[nH]ncc2c1-c1c(Cl)cc2c(nc(N3CC(C)(N(C)C)C3)c3cnn([C@H]4CCN(C(=O)/C=C/CN(C)C)[C@H](CC#N)C4)c32)c1F (single isomer, unassigned) [Example 10a]")
"≤ 100 nM"
>>> result("COC/C=C/C(=O)N1CC[C@H](n2ccc3c(OC[C@@H]4CCCN4C)nc4c(F)c(-c5c(C)c(C)cc6[nH]ncc56)c(Cl)cc4c32)C[C@H]1CC#N (single isomer, unassigned) [Example 47a]")
"≤ 100 nM"
>>> result("C=C(F)C(=O)N1CC[C@H](n2ncc3c(N4CC(C)(N(C)C)C4)nc4c(F)c(-c5c(C)c(C)cc6[nH]ncc56)c(Cl)cc4c32)C[C@H]1CC#N (single isomer, unassigned) [Example 81a]")
"≤ 100 nM"
>>> result("C=CC(=O)N1CC[C@H](n2ncc3c(OC[C@@H]4CCCN4C)nc4c(F)c(-c5cccc(C)c5C(F)(F)F)c(Cl)cc4c32)C[C@H]1CC#N [Example 28]")
"≤ 100 nM"
>>> result("COC/C=C/C(=O)N1CC[C@H](n2ncc3c(N4CC(C)(N(C)C)C4)nc4c(F)c(-c5c(C)c(C)cc6[nH]ncc56)c(C)cc4c32)C[C@H]1CC#N (single isomer, unassigned) [Example 65a]")
"≤ 100 nM"
>>> result("Cc1cc2[nH]ncc2c(-c2c(Cl)cc3c(nc(N4CC(C)(N(C)C)C4)c4cnn([C@H]5CCN(C(=O)/C=C/CN(C)C)[C@H](CC#N)C5)c43)c2F)c1C (single isomer, unassigned) [Example 84a]")
"≤ 100 nM"
>>> result("Cc1c(Cl)cc2[nH]ncc2c1-c1c(Cl)cc2c(nc(N3CC(N(C)C)C3)c3cnn([C@H]4CCN(C(=O)/C=C/C(F)F)[C@H](CC#N)C4)c32)c1F (single isomer, unassigned) [Example 7a]")
"≤ 100 nM"

----------
# Measurement target: KRAS G12C (Homo sapiens, UniProt P01116, G12C)
# Assay info: KRAS G12C GDP-GTP exchange assay (bodipy-GDP for GppNHp, with SOS1)
# Assay type: biochemical
# Design: scale not given here
# Protocol conditions: 2.5 nM bodipy-loaded KRAS G12C, 2 hours pre-incubation with inhibitor, 2 hours after GppNHp-SOS1
Measured property: G12C_exchange (KRAS_G12C exchange assay IC50)

>>> result("Cc1c(Cl)cc2[nH]ncc2c1-c1c(Cl)cc2c(nc(N3CC(C)(N(C)C)C3)c3cnn([C@H]4CCN(C(=O)/C=C/CF)[C@H](CC#N)C4)c32)c1F (single isomer, unassigned) [Example 13b]")
"††"
>>> result("COC/C=C/C(=O)N1CC[C@H](n2ncc3c(N4CC(C)(N(C)C)C4)nc4c(F)c(-c5c(C)c(Cl)cc6[nH]ncc56)c(Cl)cc4c32)C[C@H]1CC#N (single isomer, unassigned) [Example 12b]")
"††"
>>> result("Cc1c(Cl)cc2[nH]ncc2c1-c1c(Cl)cc2c(nc(N3CC(C)(N(C)C)C3)c3cnn([C@H]4CCN(C(=O)/C=C/CN(C)C)[C@H](CC#N)C4)c32)c1F (single isomer, unassigned) [Example 10b]")
"††"
>>> result("C=C(F)C(=O)N1CC[C@H](n2ncc3c(N4CC(C)(N(C)C)C4)nc4c(F)c(-c5c(C)c(Cl)cc6[nH]ncc56)c(Cl)cc4c32)C[C@H]1CC#N (single isomer, unassigned) [Example 15b]")
"††"
>>> result("CC#CC(=O)N1CC[C@H](n2ncc3c(N4CC(C)(N(C)C)C4)nc4c(F)c(-c5c(C)c(Cl)cc6[nH]ncc56)c(Cl)cc4c32)C[C@H]1CC#N (single isomer, unassigned) [Example 11b]")
"††"
